Where do the numbers come from? From BindingDB's records for PubMed 10565829.

target: Mu-type opioid receptor (Cavia porcellus, UniProt P97266)
Sequence (P97266 whole entry): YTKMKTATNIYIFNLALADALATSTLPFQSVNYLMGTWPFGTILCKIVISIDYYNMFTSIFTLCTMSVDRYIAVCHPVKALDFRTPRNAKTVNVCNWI
pKi: −log10 of the molar value.
measuredMetric: pKi

>>> quantitativeresult("CO[C@@]12CC[C@@]3(C[C@@H]1[C@@](C)(O)C(C)(C)C)[C@H]1Cc4ccc(O)c5c4[C@@]3(CCN1CC1CC1)[C@H]2O5")
9.24

###

biological target: Kappa-type opioid receptor (Cavia porcellus, UniProt P41144)
Sequence (P41144 whole entry): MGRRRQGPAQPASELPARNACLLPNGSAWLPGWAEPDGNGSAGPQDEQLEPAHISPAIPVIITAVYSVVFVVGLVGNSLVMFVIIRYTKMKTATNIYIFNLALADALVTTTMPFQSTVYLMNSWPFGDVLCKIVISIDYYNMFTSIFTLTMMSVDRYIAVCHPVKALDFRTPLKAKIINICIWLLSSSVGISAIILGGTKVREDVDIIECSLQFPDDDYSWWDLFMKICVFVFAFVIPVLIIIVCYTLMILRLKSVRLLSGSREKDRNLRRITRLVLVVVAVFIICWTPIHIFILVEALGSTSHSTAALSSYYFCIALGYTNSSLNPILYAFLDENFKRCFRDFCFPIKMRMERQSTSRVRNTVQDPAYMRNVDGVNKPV
measuredMetric: Ki (nM)

>>> quantitativeresult("CO[C@@]12CC[C@@]3(C[C@@H]1[C@@](C)(O)C(C)(C)C)[C@H]1Cc4ccc(O)c5c4[C@@]3(CCN1CC1CC1)[C@H]2O5")
2
